Origin of the recorded values: paper PMC4336329

# test.system: human ether-à-go-go-related gene (hERG) potassium channel (human, UniProt Q12809);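 further: peak tail current of the secondary pulse compared with the same well before compound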
# Sequence (Q12809 whole entry, looked up): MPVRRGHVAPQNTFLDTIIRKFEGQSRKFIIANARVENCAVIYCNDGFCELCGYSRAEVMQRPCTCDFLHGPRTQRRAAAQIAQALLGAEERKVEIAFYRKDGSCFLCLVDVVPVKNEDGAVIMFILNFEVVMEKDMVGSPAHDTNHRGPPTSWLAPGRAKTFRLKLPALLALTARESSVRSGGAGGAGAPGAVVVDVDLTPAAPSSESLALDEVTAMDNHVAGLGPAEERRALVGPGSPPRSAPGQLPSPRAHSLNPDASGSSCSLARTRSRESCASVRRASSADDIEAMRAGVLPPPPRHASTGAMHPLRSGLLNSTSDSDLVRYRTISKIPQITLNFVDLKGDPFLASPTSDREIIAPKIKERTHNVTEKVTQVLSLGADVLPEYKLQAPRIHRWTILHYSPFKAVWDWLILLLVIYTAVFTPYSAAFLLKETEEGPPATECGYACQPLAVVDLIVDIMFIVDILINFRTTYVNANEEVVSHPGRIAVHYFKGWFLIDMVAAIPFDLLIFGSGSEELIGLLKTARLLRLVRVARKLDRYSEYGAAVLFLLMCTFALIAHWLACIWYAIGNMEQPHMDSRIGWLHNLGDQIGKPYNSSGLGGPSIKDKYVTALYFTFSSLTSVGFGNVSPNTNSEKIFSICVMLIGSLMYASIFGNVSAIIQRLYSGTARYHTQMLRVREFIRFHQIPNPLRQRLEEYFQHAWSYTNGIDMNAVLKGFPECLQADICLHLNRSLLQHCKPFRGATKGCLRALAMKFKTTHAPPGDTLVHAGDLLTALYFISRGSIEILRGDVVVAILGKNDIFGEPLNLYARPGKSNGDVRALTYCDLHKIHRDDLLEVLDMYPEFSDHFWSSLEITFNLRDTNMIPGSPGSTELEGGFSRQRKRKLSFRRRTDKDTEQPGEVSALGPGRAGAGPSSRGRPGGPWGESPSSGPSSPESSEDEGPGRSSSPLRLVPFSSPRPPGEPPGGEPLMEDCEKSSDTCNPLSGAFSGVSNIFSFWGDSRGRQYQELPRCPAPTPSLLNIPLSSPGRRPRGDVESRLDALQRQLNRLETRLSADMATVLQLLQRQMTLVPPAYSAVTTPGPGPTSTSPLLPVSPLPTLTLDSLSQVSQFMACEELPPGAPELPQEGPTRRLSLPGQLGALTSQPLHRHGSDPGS
# assay.procedure: primary screen, population patch clamp on CHO cells stably expressing hERG; higher = less effect of the substance
Out of some 310,000 compounds screened, about 14,000 (4.5%) showed an effect of 50% or more. Effects have a minus sign here. The sample as a whole holds a higher share of strong results than the screen did.
readout: hERG current change (%, negative = inhibition) at 10uM (%)
Numbers only, in %.

Example compounds with recorded hERG current change (%, negative = inhibition) at 10uM:
CN(C)S(=O)(=O)c1cccc(NC(=O)CSc2nc3ccccc3[nH]2)c1; -22.2
COc1ccc(N2CCN(CC(=O)NC(=O)NCc3ccccc3)CC2)cc1; 10.4
COc1ccc(S(=O)(=O)N2CCOC23CCN(S(=O)(=O)c2ccc([N+](=O)[O-])cc2)CC3)cc1; -62
CCCCN(CCCC)C(=O)/C=C/c1cccc([N+](=O)[O-])c1; -68

List the reported hERG current change (%, negative = inhibition) at 10uM of each compound below.
1. CC(=O)Oc1ccc(-c2cc3ccccc3oc2=O)cc1
2. COc1ccc(N2CCN(CC(=O)Nc3ccccc3C(=O)NCc3ccccc3)CC2)cc1

1. 0.436
2. -55.9

List the reported hERG current change (%, negative = inhibition) at 10uM of each compound below.
1. CCN(CC)C(=O)c1cccc(C)c1
2. NC(N)=NS(=O)(=O)c1ccc(N/C=C/C(=O)c2ccc(Cl)c(Cl)c2)cc1
3. COC(=O)COc1ccc2c(-c3cccc([N+](=O)[O-])c3)cc(=O)oc2c1

[0.757, 17.3, -31.8]

List the reported hERG current change (%, negative = inhibition) at 10uM of each compound below.
1. Cc1ccccc1CN1[C@@H]2c3ccccc3C[C@@H]2OCCS1(=O)=O
2. COc1ccc(S(=O)(=O)N2CCC3(CC2)OCCN3S(=O)(=O)c2cccs2)cc1

1. -3.4
2. -23.8

---

Please go through the items and note down their hERG current change (%, negative = inhibition) at 10uM.
# test.system: human ether-à-go-go-related gene (hERG) potassium channel (human, UniProt Q12809);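 further: peak tail current of the secondary pulse compared with the same well before compound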
# assay.procedure: primary screen, population patch clamp on CHO cells stably expressing hERG; higher = less effect of the substance
Screen size: about 310,000 compounds; about 14,000 (4.5%) showed an effect of 50% or more. The effect is printed as a negative number. Only a selection was taken, and strong results are over-represented in it overall.
Give bare numbers, in %.

Example molecules with recorded hERG current change (%, negative = inhibition) at 10uM:
O=C(N/N=C/c1cccs1)c1cccc(NC(=O)c2ccc(Cl)cc2)c1; 7.57
COc1ccc(-c2nn(-c3ccccc3)cc2C(=O)N2c3ccc(C)cc3C3CN(C)CCC32)cc1 (stereo not drawn); -31.7
c1ccc(-c2cn(-c3ccccc3)c3ncnc(NCCCN4CCOCC4)c23)cc1; -60.6
O=C(Oc1cccc(C(=S)N2CCOCC2)c1)c1ccc([N+](=O)[O-])cc1[N+](=O)[O-]; -14.4
CC1(C)NC(=O)N(CC(=O)N2CCCC(C(F)(F)F)C2)C1=O (stereo not drawn); 10.4
CC(C)[C@H](NC(=O)OCc1ccccc1)C(=O)OCC(=O)N1CCN(c2ccc(F)cc2)CC1; -75.3
CCN(CC(=O)NCc1ccc(Cl)cc1)C(=O)c1cc(OC)cc(OC)c1; -48.4
FC(F)(F)c1cccc(-c2cc(C3CCNCC3)[nH]n2)c1; -44.3

List the reported hERG current change (%, negative = inhibition) at 10uM of each molecule below.
1. Cc1ccc2c(c1)C1CN(C)CCC1N2C(=S)Nc1ccc(Cl)cc1Cl (stereo not drawn)
2. CC1C(=O)C(C)C(c2ccco2)NC1c1ccco1.Cl (stereo not drawn)
3. O=c1cc(N2CCc3ccccc3C2)[nH]c(=O)n1-c1ccc(Cl)cc1

1. -34.2
2. 13.9
3. 3.07

List the reported hERG current change (%, negative = inhibition) at 10uM of each molecule below.
1. C[C@H]1CCCC(=O)CCCCCc2cc(O)cc(O)c2C(=O)O1
2. COc1ccc(-c2ccc(NS(=O)(=O)c3cc([N+](=O)[O-])ccc3C)cc2)nn1
3. COc1ccc(-n2cc(-c3ccccc3)c3c(N4CCOCC4)ncnc32)cc1
4. O=c1ccc(-c2ccc([N+](=O)[O-])cc2)nn1-c1ccccc1
5. CCN(CC(=O)NCc1ccc(F)cc1)C(=O)/C=C/c1ccc(OC)cc1
6. CC(C)[C@H](NC(=O)OCc1ccccc1)C(=O)OCC(=O)Nc1ccc(N2CCOCC2)cc1

-0.0905
-25.5
22.5
-55
-48
-15.1

Reported hERG current change (%, negative = inhibition) at 10uM of CC(C(=O)OCC(=O)c1ccccc1)N1C(=O)C2C3CCC(C3)C2C1=O (stereo not drawn) : 10.5
